# PROTOCOL TEXT: Induction of nitric oxide release in phosphate buffer assessed as nitrite level at 0.1 mM measured every 15 mins for 120 mins followed by every 30 mins for 180 mins by Griess assay
# Assay type: physicochemical
# STUDY CONDITIONS: 100 µM
Entries and their Activity
OBSERVATION TYPE: Activity (µmol/L)

CCCCC1OC(=O)c2cc(NC(=O)c3cccc(OCCCO[N+](=O)[O-])c3)ccc21 (stereo not given) ... 7.27
CCCCC1OC(=O)c2cc(NC(=O)c3ccccc3OCCO[N+](=O)[O-])ccc21 (stereo not given) ... 1.82
CCCCC1OC(=O)c2cc(NC(=O)c3cccc(OCCO[N+](=O)[O-])c3)ccc21 (stereo not given) ... 6.82
CCCCC1OC(=O)c2cc(NC(=O)CO[N+](=O)[O-])ccc21 (stereo not given) ... 3.67
CCCCC1OC(=O)c2cc(NC(=O)CCCO[N+](=O)[O-])ccc21 (stereo not given) ... 7.1
